Test system: corn plants (variety NK OCTET)
Assay: Reduced plant water use in corn (foliar spray, repeated weighing of pots)
Format: in vivo
Settings: Zea mays, 48 h, corn plants sprayed at 500 μM, water use during day time vs negative control, 2 DAA p.m. (14:00-19:50), average of 6 pots, read-out: % WU 2 DAA PM
Overview of reported change in vivo at 500 µM across a group of compounds:
Your reply should be a number followed by the unit it is expressed in.

Some compounds with recorded change in vivo at 500 µM:
Smiles text: CCN1C(=O)CCc2cc(CNS(=O)(=O)c3ccc(C(F)(F)F)cc3)ccc21
change in vivo at 500 µM: -1%
//
Smiles text: CCCN1C(=O)CCc2cc(CNS(=O)(=O)c3ccc(Br)cc3)ccc21
change in vivo at 500 µM: -7%
//
Smiles text: CCCN1C(=O)CCc2cc(CNS(=O)(=O)/C=C/c3cccc(Cl)c3)ccc21
change in vivo at 500 µM: -3.8%
//
Smiles text: CCCN1C(=O)CCc2cc(CNS(=O)(=O)c3ccc4ccccc4c3)ccc21
change in vivo at 500 µM: -3.3%

Can you look up the measured change in vivo at 500 µM of CCN1C(=O)CCc2cc(CNS(=O)(=O)/C=C/c3ccccc3)ccc21 for me?
-6.5%

Next compound up: CCN1C(=O)CCc2cc(CNS(=O)(=O)c3ccc(F)cc3F)ccc21
-3.2%

Next compound up: CCCN1C(=O)CCc2cc(CNS(=O)(=O)c3ccccc3Br)ccc21
-2.1%

Next compound up: CCCN1C(=O)CCc2cc(CNS(=O)(=O)c3cn(C)cn3)ccc21
2%

----------
Assay metric: melting point

Smiles text: CCCN1C(=O)CCc2cc(CNS(=O)(=O)c3ccccc3Br)ccc21
Reported value: 157 to 159 °C
//
Smiles text: CCCN1C(=O)CCc2cc(CNS(=O)(=O)c3ccc(C)cc3C)ccc21
Reported value: 166 to 167 °C
//
Smiles text: CCN1C(=O)CCc2cc(CNS(=O)(=O)c3ccc(F)cc3)ccc21
Reported value: 190 to 191 °C
//
Smiles text: CCCN1C(=O)CCc2cc(CNS(=O)(=O)c3c(F)cccc3F)ccc21
Reported value: 182 to 183 °C
//
Smiles text: CCN1C(=O)CCc2cc(CNS(=O)(=O)C3CC3)ccc21
Reported value: 104 to 106 °C

--- query ---
Can you look up the measured melting point of CCN1C(=O)CCc2cc(CNS(=O)(=O)c3ccc(F)cc3F)ccc21 for me?
167 to 168 °C

----------
Overview of reported change in vivo at 500 µM across a group of molecules:
System: corn plants (variety NK OCTET)
Assay: Reduced plant water use in corn (foliar spray, repeated weighing of pots)
Format: in vivo
Conditions: Zea mays, 48 h, corn plants sprayed at 500 μM, water use during day time vs negative control, 2 DAA p.m. (14:00-19:50), average of 6 pots, read-out: % WU 2 DAA PM
Give a bare numeral; the unit % is implied.

Some molecules with recorded change in vivo at 500 µM:
Molecule: CCCN1C(=O)CCc2cc(CNS(=O)(=O)/C=C/c3ccccc3)ccc21 [Compound 3.051]
change in vivo at 500 µM (%): -4.3

Molecule: CCCN1C(=O)CCc2cc(CNS(=O)(=O)c3ccc(F)cc3F)ccc21 [Compound 3.006]
change in vivo at 500 µM (%): -5.7

Molecule: CCCN1C(=O)CCc2cc(CNS(=O)(=O)/C=C/c3ccccc3F)ccc21 [Compound 3.056]
change in vivo at 500 µM (%): -3.2

Molecule: C/C=C/CS(=O)(=O)NCc1ccc2c(c1)CCC(=O)N2CCC [Compound 3.066]
change in vivo at 500 µM (%): -5.5

Molecule: CCCN1C(=O)CCc2cc(CNS(=O)(=O)c3c(F)cccc3F)ccc21 [Compound 3.005]
change in vivo at 500 µM (%): -5.3

Write down the reported change in vivo at 500 µM of CCN1C(=O)CC(C)c2cc(CNS(=O)(=O)c3ccccc3)ccc21 (stereo not shown) [Compound 20.001] , test system: corn plants (variety NK OCTET).
-5.5

Next molecule up: CCCN1C(=O)CCc2cc(CNS(=O)(=O)c3cc(Cl)sc3Cl)ccc21 [Compound 3.064]
-4.7

Next molecule up: CCCN1C(=O)CCc2cc(CNS(=O)(=O)CCCC(F)(F)F)ccc21 [Compound 3.020]
-8.5

Next molecule up: C/C=C/S(=O)(=O)NCc1ccc2c(c1)CCC(=O)N2CCC [Compound 3.060]
-6.4

Next molecule up: CCN1C(=O)CCc2cc(CNS(=O)(=O)/C=C/c3cccc(Br)c3)ccc21 [Compound 2.070]
-3.8
